- measured_target: D-amino-acid oxidase (Homo sapiens, UniProt P14920)
- Sequence (P14920 whole entry): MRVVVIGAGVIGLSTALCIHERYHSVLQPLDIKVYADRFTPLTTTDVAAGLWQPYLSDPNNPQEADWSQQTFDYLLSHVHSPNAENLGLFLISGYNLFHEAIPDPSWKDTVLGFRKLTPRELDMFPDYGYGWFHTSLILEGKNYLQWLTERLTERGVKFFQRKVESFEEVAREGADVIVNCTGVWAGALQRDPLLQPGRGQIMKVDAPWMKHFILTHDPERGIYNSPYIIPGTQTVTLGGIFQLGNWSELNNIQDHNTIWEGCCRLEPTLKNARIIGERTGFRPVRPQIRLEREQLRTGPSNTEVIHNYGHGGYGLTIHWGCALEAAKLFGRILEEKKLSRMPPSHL
- protocol_details: Inhibition of full length human DAO transfected in CHO-K1 cells incubated for 30 mins by Amplex red and horseradish peroxidase based fluorescence assay
- Format: cell-based
assay_endpoint: EC50 (nM)

[P] O=c1[nH]cc(CSc2cnc3cc(Cl)ccc3c2)[nH]c1=O
[Q] O=c1[nH]cc(CSc2ccc(S(F)(F)(F)(F)F)cc2)[nH]c1=O
Q: Compare P and Q and name the one whose reported EC50 is smaller. Answer by stating the label of the chosen item.
Ans: Q
(Q: 710 nM, P: 1100 nM)

[A] CS(=O)(=O)c1ccc2c(c1)OC[C@@H](c1c[nH]c(=O)c(=O)[nH]1)S2
[B] O=c1[nH]cc(CCc2cccc(Cl)c2)[nH]c1=O
Q: Between the two listed entries A and B , which has its EC50 at the higher number? Answer by stating the label of the chosen item.
Ans: B

====

- protocol_details: Half life in C57/BL6 mouse at 0.5 mg/kg,iv by LC-MS-MS analysis
- Type: ADME, organism-based
- measurement_context: in vivo
assay_endpoint: half-life (h)
Respond with the bare value in h.

Q: If you can, please state the reported half-life value of O=c1[nH]c2ccsc2[nH]c1=O .
Ans: 1.2

====

- measured_target: D-amino-acid oxidase (Homo sapiens, UniProt P14920)
- protocol_details: Inhibition of full length human DAO transfected in CHO-K1 cells incubated for 30 mins by Amplex red and horseradish peroxidase based fluorescence assay
assay_endpoint: EC50 (nM)

N#Cc1ccc2c(c1)OC[C@@H](c1c[nH]c(=O)c(=O)[nH]1)S2 = 630

[A] O=c1[nH]cc(CCc2ccc(OC(F)F)nc2)[nH]c1=O
[B] O=c1[nH]cc(C2COc3cc(C(F)(F)F)ccc3S2)[nH]c1=O (stereo unspecified)
[C] O=c1[nH]cc(CSc2ccc(Cl)cc2)[nH]c1=O
[D] CS(=O)(=O)c1ccc(CSc2c[nH]c(=O)c(=O)[nH]2)cc1
[E] O=c1[nH]cc([C@@H]2COc3cc(Cl)ccc3S2)[nH]c1=O
Q: Please list these compounds in decreasing order of EC50. Write out the labels following the order that was asked for.
Ans: A, C, D, B, E

====

- measured_target: Peroxisome proliferator-activated receptor gamma (Homo sapiens)
- Sequence (P37231 whole entry): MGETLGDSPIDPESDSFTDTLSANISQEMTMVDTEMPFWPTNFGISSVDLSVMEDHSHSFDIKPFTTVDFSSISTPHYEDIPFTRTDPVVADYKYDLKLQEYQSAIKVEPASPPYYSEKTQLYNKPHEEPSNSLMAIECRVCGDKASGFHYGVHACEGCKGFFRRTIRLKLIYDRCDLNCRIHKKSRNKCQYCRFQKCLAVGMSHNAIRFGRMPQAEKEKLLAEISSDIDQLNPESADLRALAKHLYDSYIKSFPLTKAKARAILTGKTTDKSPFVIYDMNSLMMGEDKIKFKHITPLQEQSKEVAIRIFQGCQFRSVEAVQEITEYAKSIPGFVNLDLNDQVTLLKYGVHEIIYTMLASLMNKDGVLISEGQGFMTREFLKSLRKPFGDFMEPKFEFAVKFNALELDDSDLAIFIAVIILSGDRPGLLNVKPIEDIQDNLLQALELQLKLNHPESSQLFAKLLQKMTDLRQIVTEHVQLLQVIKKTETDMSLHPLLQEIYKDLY
- protocol_details: Inhibition of recombinant human PPAR gamma NHR incubated for 120 mins by scintillation counting based radiometry assay
assay_endpoint: IC50

O=c1[nH]cc(CSc2ccc(C(F)(F)F)cc2)[nH]c1=O = > 10 µM

Now take the following compound into account.
Q: If you can, please state the reported IC50 value of O=c1[nH]cc(CSc2ccc(C(F)F)cc2)[nH]c1=O .
Ans: > 10 µM

====

- protocol_details: Oral bioavailability in C57/BL6 mouse at 2 mg/kg by LC-MS-MS analysis
- Assay type: ADME, organism-based
- measurement_context: in vivo
assay_endpoint: bioavailability (%)

[I] O=c1[nH]c(=O)n(O)cc1CCc1ccc(Cl)cc1
[II] O=c1[nH]c2ccsc2[nH]c1=O
Q: Compare I and II and name the one whose reported bioavailability is smaller. Answer by stating the label of the chosen item.
Ans: I

====

- protocol_details: Unbound brain-to-plasma concentration ratio in C57Bl/6 mouse at 2 mg/kg, po or 0.5 mg/kg,iv by LC-MS-MS analysis
- Assay type: ADME, organism-based
- measurement_context: C57Bl/6, mouse, brain and plasma, read-out: K(p,uu,brain)
assay_endpoint: Kp uu
// response body must contain only the number

Q: If you can, please state the reported Kp uu value of O=c1[nH]c2ccsc2[nH]c1=O .
Ans: 0.005
